Test system: S. epidermidis ATCC 12228
Procedure summary: Broth microdilution MIC/MBC
Type: cell-based
Assay conditions: S. epidermidis ATCC 12228, 99.9% killing
Description: Broth microdilution tests were performed according to NCCLS guidelines. […] After determining the MICs, minimum bactericidal concentrations (MBCs) were determined by spreading 20 μl of suspension from wells showing no growth onto MHA plates, which were then incubated for 24 h and examined for 99.9% killing.
// boundary case: MBC equal to 100 µM maps to NOT MET; strictly smaller maps to MET

{"Compound": "CCCCCCCCCCCCCC[n+]1cccc2ccccc21.[Br-]", "Subject of test": "S. epidermidis ATCC 12228", "Answer label": "MET"}
{"Compound": "CCCCCCCCn1cc[n+](C)c1.[Cl-]", "Subject of test": "S. epidermidis ATCC 12228", "Answer label": "NOT MET"}
{"Compound": "CCCCCCn1cc[n+](C)c1.[Cl-]", "Subject of test": "S. epidermidis ATCC 12228", "Answer label": "NOT MET"}
{"Compound": "CCCCCCCCCC[n+]1cccc2ccccc21.[Br-]", "Subject of test": "S. epidermidis ATCC 12228", "Answer label": "NOT MET"}
{"Compound": "CCCCCCCCCCCC[n+]1cccc2ccccc21.[Br-]", "Subject of test": "S. epidermidis ATCC 12228", "Answer label": "MET"}
{"Compound": "CCCCCCCC[n+]1cccc2ccccc21.[Br-]", "Subject of test": "S. epidermidis ATCC 12228", "Answer label": "NOT MET"}
{"Compound": "CCCCCCCCCCCCCCCC[n+]1cccc2ccccc21.[Br-]", "Subject of test": "S. epidermidis ATCC 12228", "Answer label": "MET"}

Reference source: patent US20110144079A1
